Target: Recombinant human CD33 protein (Homo sapiens (Human), UniProt P20138)
Sequence (P20138 18-259): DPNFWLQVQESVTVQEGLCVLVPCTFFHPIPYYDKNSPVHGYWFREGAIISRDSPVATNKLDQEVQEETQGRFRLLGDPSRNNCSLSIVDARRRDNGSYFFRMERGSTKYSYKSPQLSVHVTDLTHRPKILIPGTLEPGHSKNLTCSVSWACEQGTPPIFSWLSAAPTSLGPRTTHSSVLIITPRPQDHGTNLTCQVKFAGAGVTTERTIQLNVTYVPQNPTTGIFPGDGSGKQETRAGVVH
Assay: CD33 competitive binding assay for HTS drug screen (fluorescent multivalent sialic acid probe)
test_readout: pEC50
Please note pEC50 is a logarithmic value: minus log10 of concentration in mol/L. Answer with that number alone.

Solved entries:
Look up and report pEC50, with Recombinant human CD33 protein (Homo sapiens (Human), UniProt P20138) as system, for CC(=O)N[C@H]1[C@H]([C@H](O)[C@H](O)CNC(=O)c2cc(Cl)c(O)c(Cl)c2)O[C@@](CC2OC(C)(C)O[C@@H]2c2cccc(C(=O)NCc3ccccc3)c2)(C(=O)O)C[C@@H]1O (stereo partly shown) [A-322]
5.11

Look up and report pEC50, with Recombinant human CD33 protein (Homo sapiens (Human), UniProt P20138) as system, for CC(=O)N[C@H]1[C@H]([C@H](O)[C@H](O)CNC(=O)c2cc(C)c(O)c(C)c2)O[C@@](CCN2CCOC[C@@]23CCN(C(=O)c2ccc(C)cc2)C3)(C(=O)O)C[C@@H]1O [A-099]
6.47

Look up and report pEC50, with Recombinant human CD33 protein (Homo sapiens (Human), UniProt P20138) as system, for CC(=O)N[C@H]1[C@H]([C@H](O)[C@H](O)CNC(=O)c2ccc(O)c(C(F)(F)F)c2)O[C@@](CCN2CCOC[C@@]23CCN(C(=O)OC(C)(C)C)C3)(C(=O)O)C[C@@H]1O [A-147]
6.90

Look up and report pEC50, with Recombinant human CD33 protein (Homo sapiens (Human), UniProt P20138) as system, for CC(=O)N[C@H]1[C@H]([C@H](O)[C@H](O)CNC(=O)c2cc(C)c(O)c(C)c2)O[C@@](CCN2CCCC23CN(C(=O)OC(C)(C)C)C3)(C(=O)O)C[C@@H]1O [A-017]
5.81

Look up and report pEC50, with Recombinant human CD33 protein (Homo sapiens (Human), UniProt P20138) as system, for CC(=O)N[C@H]1[C@H]2O[C@](C(=O)O)(C/C=C/c3cccc(c3)[C@@H](NC(=O)C3CCCOC3)CCCc3cc(cc(Cl)c3O)C(=O)NC[C@@H](O)[C@H]2O)C[C@@H]1O (stereo partly shown) [A-352]
4.03

New cases:
Look up and report pEC50, with Recombinant human CD33 protein (Homo sapiens (Human), UniProt P20138) as system, for CC(=O)N[C@H]1[C@H]([C@H](O)[C@H](O)CNC(=O)c2cc(C)c(O)c(C)c2)O[C@@](C/C=C/c2cccc(CNC(=O)c3cccc(NCc4cncs4)c3)c2)(C(=O)O)C[C@@H]1O [A-246]
5.40

Look up and report pEC50, with Recombinant human CD33 protein (Homo sapiens (Human), UniProt P20138) as system, for Cc1cc(C(=O)NC[C@@H](O)[C@@H](O)[C@@H]2O[C@@](C/C=C/c3cccc(CNC(=O)c4ccn(-c5ccccn5)n4)c3)(C(=O)O)C[C@H](O)[C@H]2NC(=O)Cn2cc(C3CCCCC3)nn2)cc(C)c1O [A-275]
5.06

Look up and report pEC50, with Recombinant human CD33 protein (Homo sapiens (Human), UniProt P20138) as system, for CC(=O)N[C@H]1[C@H]([C@H](O)[C@H](O)CNC(=O)c2cc(C)c(O)c(C)c2)O[C@@](C[C@H]2COC[C@]3(CCN(C(=O)OC(C)(C)C)C3)N2)(C(=O)O)C[C@@H]1O [A-224]
6.84

Look up and report pEC50, with Recombinant human CD33 protein (Homo sapiens (Human), UniProt P20138) as system, for Cc1cc(C(=O)NC[C@@H](O)[C@@H](O)[C@@H]2O[C@@](C/C=C/c3cccc(CNC(=O)c4cccc(Cl)c4)c3)(C(=O)O)C[C@H](O)[C@H]2NC(=O)Cn2cc(C3CCCCC3)nn2)cc(C)c1O [A-262]
5.22

Look up and report pEC50, with Recombinant human CD33 protein (Homo sapiens (Human), UniProt P20138) as system, for CC(=O)N[C@H]1[C@H]([C@H](O)[C@H](O)CNC(=O)c2cc(C)c(O)c(C)c2)O[C@@](CCN2CCOC[C@@]23CCN(C(=O)C2CCC(F)(F)C2)C3)(C(=O)O)C[C@@H]1O (stereo partly shown) [A-074]
6.58

----------
Molecular target: Recombinant Human Siglec-3/CD33 protein (His-CD33) (Homo sapiens (Human))
Assay: Differential scanning fluorimetry (DSF) thermal shift assay
Type: binding
Conditions: difference in thermal melt of CD33 protein (0.5 μM) with 50 μM compound
Classification field: yes (1) = DSF (dTmD) at or over 4 °C; no (0) = DSF (dTmD) under 4 °C.

Previously resolved entries follow.
Tell me whether DSF (dTmD) is at least 4 °C here: CC(=O)N[C@H]1[C@H]([C@H](O)[C@](C)(O)CNC(=O)c2cc(C)c(O)c(C)c2)O[C@@](CCN2CCOC[C@@]23CCN(C(=O)OC(C)(C)C)C3)(C(=O)O)C[C@@H]1O [A-204]
yes (1)

Tell me whether DSF (dTmD) is at least 4 °C here: CC(=O)N[C@H]1[C@H]2O[C@](C(=O)O)(C/C=C/c3cccc(c3)[C@@H](NC(=O)C3CCCOC3)CCCCc3cc(cc(Cl)c3O)C(=O)NC[C@@H](O)[C@H]2O)C[C@@H]1O (stereo partly shown) [A-353]
no (0)

Tell me whether DSF (dTmD) is at least 4 °C here: CC(=O)N[C@H]1[C@H]([C@H](O)[C@@](C)(O)CNC(=O)c2cc(C)c(O)c(C)c2)O[C@@](CCN2CCOC[C@@]23CCN(C(=O)OC(C)(C)C)C3)(C(=O)O)C[C@@H]1O [A-205]
no (0)

Tell me whether DSF (dTmD) is at least 4 °C here: Cc1cc(C(=O)NC[C@@H](O)[C@@H](O)[C@@H]2O[C@@](C/C=C/c3cccc(CNC(=O)c4ccc5[nH]ccc5c4)c3)(C(=O)O)C[C@H](O)[C@H]2NC(=O)Cn2cc(C3CCCCC3)nn2)cc(C)c1O [A-278]
yes (1)

Tell me whether DSF (dTmD) is at least 4 °C here: CC(=O)N[C@H]1[C@H]([C@H](O)[C@H](O)CNC(=O)c2cc(C)c(O)c(C)c2)O[C@@](CC2OC(C)(C)O[C@H]2c2cccc(CC(=O)OC(C)(C)C)c2)(C(=O)O)C[C@@H]1O (stereo partly shown) [A-315]
yes (1)

Tell me whether DSF (dTmD) is at least 4 °C here: CC(=O)N[C@H]1[C@H]([C@H](O)[C@H](O)CNC(=O)c2cc(C)c(O)c(C)c2)O[C@@](C[C@H]2COC[C@@]3(CCN(C(=O)OC(C)(C)C)C3)N2)(C(=O)O)C[C@@H]1O [A-227]
yes (1)

Tell me whether DSF (dTmD) is at least 4 °C here: CC(=O)N[C@H]1[C@H]([C@H](O)[C@H](O)CNC(=O)c2cc(C)c(O)c(C)c2)O[C@@](C/C=C/c2cccc(CNC(=O)c3ccc4[nH]c(C(C)(C)CO)cc4c3)c2)(C(=O)O)C[C@@H]1O [A-249]
yes (1)

Tell me whether DSF (dTmD) is at least 4 °C here: CC(=O)N[C@H]1[C@H]([C@H](O)[C@H](O)CNC(=O)c2cc(C)c(O)c(C)c2)O[C@@](CCN2CCOC[C@@]23CCN(C(=O)OC(C)(C)C)C3)(C(=O)NS(C)(=O)=O)C[C@@H]1O [A-365]
no (0)

Tell me whether DSF (dTmD) is at least 4 °C here: CC(=O)N[C@H]1[C@H]([C@H](O)[C@H](O)CNC(=O)c2cc(C)c(O)c(C)c2)O[C@@](CCN2CCOC[C@@]23CCN(C(=O)OC(C)(C)C)C3)(C(=O)NS(=O)(=O)c2ccccc2)C[C@@H]1O [A-368]
no (0)

# ---- query molecule ----
Tell me whether DSF (dTmD) is at least 4 °C here: CC(=O)N[C@H]1[C@H]([C@H](O)[C@H](O)CNC(=O)c2cc(C)c(O)c(C)c2)O[C@@](C[C@H]2COCC3(CCN(C(=O)OC(C)(C)C)CC3)N2)(C(=O)O)C[C@@H]1O [A-231]
yes (1)

----------
Biological target: Recombinant Human Siglec-3/CD33 protein (His-CD33) (Homo sapiens (Human), UniProt P20138)
Experiment: Differential scanning fluorimetry (DSF) thermal shift assay
Format: binding
Settings: thermal melt shift of 0.5 μM CD33 protein with 50 μM compound
Measured DSF (dTmD), listed per entry for reference.
Keep it simple and answer with nothing but the number.

Solved entries:
Report measured DSF (dTmD); entry is "CC(=O)N[C@H]1[C@H]([C@H](O)[C@H](O)CNC(=O)c2cc(C)c(O)c(C)c2)O[C@@](CCN2CCOC[C@@]23CCN(C(=O)NC(C)C)C3)(C(=O)O)C[C@@H]1O"
12.5

Report measured DSF (dTmD); entry is "CC(=O)N[C@H]1[C@H]([C@H](O)[C@H](O)CNC(=O)c2cc(C)c(F)c(C)c2)O[C@@](CCN2CCOC[C@@]23CCN(C(=O)OC(C)(C)C)C3)(C(=O)O)C[C@@H]1O"
12.1

Report measured DSF (dTmD); entry is "CC(=O)N[C@H]1[C@H]([C@H](O)[C@H](O)CNC(=O)c2cc(C)c(O)c(C)c2)O[C@@](CCN2CCOC[C@@]23CCN(C(=O)NC24CC5CC(CC(C5)C2)C4)C3)(C(=O)O)C[C@@H]1O"
13.5

Moving on to another compound below.
Report measured DSF (dTmD); entry is "CC(=O)N[C@H]1[C@H]([C@H](O)[C@H](O)CNC(=O)c2ccc(O)c(C(F)(F)F)c2)O[C@@](CCN2CCOC[C@@]23CCN(C(=O)OC(C)(C)C)C3)(C(=O)O)C[C@@H]1O"
10.6
